# assay-system: ProE (Pseudomonas aeruginosa)
# Sequence (Q9HTQ9 entry or part of it): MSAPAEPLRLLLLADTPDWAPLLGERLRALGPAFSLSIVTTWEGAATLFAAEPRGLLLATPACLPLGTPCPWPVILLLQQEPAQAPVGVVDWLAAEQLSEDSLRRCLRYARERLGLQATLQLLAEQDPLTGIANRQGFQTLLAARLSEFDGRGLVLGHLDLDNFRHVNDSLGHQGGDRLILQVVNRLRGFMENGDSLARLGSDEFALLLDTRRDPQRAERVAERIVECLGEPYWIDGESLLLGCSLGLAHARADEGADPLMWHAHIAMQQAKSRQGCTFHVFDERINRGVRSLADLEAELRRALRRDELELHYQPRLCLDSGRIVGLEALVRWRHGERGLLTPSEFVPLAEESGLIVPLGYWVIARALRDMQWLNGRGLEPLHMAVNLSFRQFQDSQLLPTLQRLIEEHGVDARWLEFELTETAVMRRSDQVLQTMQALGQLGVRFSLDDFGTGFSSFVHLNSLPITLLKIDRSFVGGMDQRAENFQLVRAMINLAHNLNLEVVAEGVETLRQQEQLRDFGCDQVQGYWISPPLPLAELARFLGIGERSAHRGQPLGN
# procedure-text: surface plasmon resonance
measurement-label: Kd (nM)
Respond numerically; units are nM and should not be typed.

Kd in this record for Nc1nc2c(ncn2[C@@H]2O[C@@H]3CO[P@](=O)(O)O[C@H]4[C@@H](O)[C@H](n5cnc6c(=O)[nH]c(N)nc65)O[C@@H]4CO[P@](=O)(O)O[C@H]3[C@H]2O)c(=O)[nH]1 : 2720
